Taken from ChEMBL document CHEMBL1129515.

tested on: Pichinde virus; experiment: Inhibitory activity of compound against pichinde virus (PIC) was evaluated in vitro; Inactive; format: functional
experimental_endpoint: Dose (µg/mL)
Report only the number, with the unit µg/mL understood.

Measured Dose for this entry Cc1cn(COC(CP(=O)(O)O)C(O)CO)c(=O)[nH]c1=O (stereo not drawn) on Pichinde virus: 320

Measured Dose for this entry CCOP(=O)(O)CC(OCn1ccc(=O)[nH]c1=O)C(C)O (stereo not drawn) on Pichinde virus: 320

Measured Dose for this entry Cc1cn(COC(CP(=O)(O)O)C(C)O)c(=O)[nH]c1=O (stereo not drawn) on Pichinde virus: 320
